Target: T1, M2-1 WT (Human respiratory syncytial virus …, UniProt P04545 1-194)
T1 sequence: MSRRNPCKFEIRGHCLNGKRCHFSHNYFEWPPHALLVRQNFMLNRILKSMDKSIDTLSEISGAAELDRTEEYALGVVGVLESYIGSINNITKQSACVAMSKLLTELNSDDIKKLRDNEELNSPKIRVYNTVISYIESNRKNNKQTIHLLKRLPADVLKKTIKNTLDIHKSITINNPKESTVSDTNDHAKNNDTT
Experiment: MST
Property: pKd
Schema: pKd number; meaning minus log10 of the concentration expressed in molar units.

Would you mind telling me what pKd value was observed for AGUUAAUUAAAAA (ssRNA) [SH 13-nt positive-sense gene-end RNA] ?
6.06
